Cited source for all entries: the supplement of paper PMC10567573

B1: DFFB (parent)
chain: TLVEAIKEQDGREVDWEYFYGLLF

Variants of: B1
Test: protein stability index of a GFP-peptide fusion (GPS, HEK-293T) (PSI 1-6); higher = more stable;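 note: lentivirally expressed fusions sorted by FACS into six bins by GFP to DsRed ratio, PSI derived from sequencing read proportions per bin multiplied by bin number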
Settings: c terminus: a fixed tail appended
Classification field: YES = protein stability index at or over 2; NO = protein stability index under 2.

[[record]]
seq_string = "TLVEAIKEQDGRIVDWEYFYGLLF"
assigned_label = "YES"

[[record]]
seq_string = "TLVEAIKEQDGRGVDWEYFYGLLF"
assigned_label = "YES"

[[record]]
seq_string = "TLVEAIKEQDGREVDWENFYGLLF"
assigned_label = "YES"


Problem: Does protein stability index meet or surpass 2 for `TLVEAIQEQDGREVDWEYFYGLLF` ?
Result: YES

Problem: Do the same for `TAVEAIKEQDGREVDWEYFYGLLF` please
Result: YES

Problem: Do the same for `TTVEAIKEQDGREVDWEYFYGLLF` please
Result: YES

Problem: Do the same for `TLVEAIKEQDGMEVDWEYFYGLLF` please
Result: YES

Problem: Do the same for `TLVEAIKEQDGREVDWEYFGGLLF` please
Result: NO

Problem: Do the same for `TLVEAIKEQDGREGDWEYFYGLLF` please
Result: YES

Problem: Do the same for `TLVEAIKEQDGREVDWEYTYGLLF` please
Result: YES

Problem: Do the same for `TLVEAIKEQDGREVEWEYFYGLLF` please
Result: YES

Problem: Do the same for `TWVEAIKEQDGREVDWEYFYGLLF` please
Result: NO

Problem: Do the same for `TLVEAMKEQDGREVDWEYFYGLLF` please
Result: NO

Problem: Do the same for `TLVEAIKEQDGREVDWEYFYGWLF` please
Result: NO

Problem: Do the same for `TLVEAIEEQDGREVDWEYFYGLLF` please
Result: YES

Problem: Do the same for `TLVEAIKEQDGRESDWEYFYGLLF` please
Result: YES

Problem: Do the same for `TLKEAIKEQDGREVDWEYFYGLLF` please
Result: YES

Problem: Do the same for `TLVEAIKEQDGREVDWEYFNGLLF` please
Result: YES

Problem: Do the same for `TLVEAIKEQDGREVDWEYKYGLLF` please
Result: YES

Problem: Do the same for `TLVEAQKEQDGREVDWEYFYGLLF` please
Result: YES

Problem: Do the same for `TLVEAIKEQDCREVDWEYFYGLLF` please
Result: YES

Problem: Do the same for `TLVEAIKEQDGRNVDWEYFYGLLF` please
Result: NO

Problem: Do the same for `TLVEAISEQDGREVDWEYFYGLLF` please
Result: NO

Problem: Do the same for `TLVEAIKEQKGREVDWEYFYGLLF` please
Result: YES
